# Tested on: TO-3-N3 (biotin conjugate)
# METHOD_NOTES: pull-down binding Z-score (relative to library population); higher = stronger binding
# STATED_CONDITIONS: RNA library: Library-2
Mark N for pull-down binding Z-score values under 0.2, and Y for everything at or above.

seq_string=UGUGUGAUAUCAGACA label_value=N
seq_string="AUAGUUUUAGGGCAGGGAUUUUGCCCACAAGGAGGUAACUAU [hsa-let-7d]" label_value=Y
seq_string="UCACUGCUGCUGGCGCCCUGA [hsa-mir-943]" label_value=N
seq_string="CCCACGUCGCAUGCGCCCCGGGAAAGCGUGGG [hsa-mir-3180-1_3180-3_3180-2]" label_value=Y
seq_string="GUCAAAGUGACUAUUGAC [SHAPE_invitro_SARS-CoV-2_Motif_373]" label_value=N
seq_string="GCUUUCUGUGGUCAGAAAGAAAAGCAAGU [hsa-mir-520f]" label_value=Y
seq_string=AACUACUAUUCAAACAAUUGUUGAGGUUCAACCUCAAUUAGAGAUGGAACUUACACCAGUUGUUCAGACUAUUGAAGUGAAUAGUUUUAGUGGUU label_value=N
seq_string="CAUUGUAACAUGAUAGUG [hsa-mir-4264]" label_value=N
seq_string="GCGCUGCCAGAAACUGGCUUAAGCGC [bulge-UUA]" label_value=N
seq_string="CCUAAAGUGAAGUAUUUAUACUUUAUUAAAGG [DMSMaPseq_invitro_SARS-CoV-2_Motif_232]" label_value=Y

----------
# Tested on: TO-3-N3 (biotin conjugate)
# METHOD_NOTES: pull-down binding Z-score (relative to library population); higher = stronger binding
# STATED_CONDITIONS: RNA library: Library-2
Mark No for pull-down binding Z-score values under -0.2, and Yes for everything at or above.

seq_string="CUUUCCUCAGCUGAUUUCUUUCUGGGGAGAG [hsa-mir-5186]" label_value=Yes
seq_string=CUUAUGUUGGUUGCCAUAACAAGUGUGCCUAUUGGGUUCCACGUGCUAGCGCUAACAUAGG label_value=No
seq_string="UUGUCUCCUCAAGUUGCGACGAGACAG [hsa-mir-4645]" label_value=No
seq_string="AGUUGUGAAUUCUCAAAACACCU [hsa-mir-660]" label_value=No
seq_string="CUGAGCUGGGUACUGCCUGUUCAG [hsa-mir-589]" label_value=Yes
seq_string="GUGCUUGGGACAUUUGAUACCGCAC [IAV_invivo_PB2_1_Motif_30+IAV_invivo_PB2_1_Motif_30]" label_value=No
seq_string="GGUACAUUUACUUGUGCU [SHAPE_invivo_SARS-CoV-2_Motif_118]" label_value=Yes
seq_string="GGUGACAACAACC [IAV_invivo_M1_M2_7_Motif_11+IAV_invivo_M1_M2_7_Motif_11]" label_value=No
seq_string="GUGGUUUCAGGGCAGUGAUGUUGCCCCUCGGAAGAUAACUAU [hsa-let-7b]" label_value=No
seq_string="CUUUCUGUUGUCUGAAAGAAAGGAAAG [hsa-mir-519a-1_519a-2]" label_value=No
seq_string=UGUAAAUCACAUAAACCACCCAUUAGUUUUCCAUUGUGUGCUAAUGGACAAGUUUUUGGUUUAUA label_value=No
seq_string="UAGAUACUCAGGAGGGUGAGUAUCUA [hsa-mir-5689]" label_value=No
seq_string="GGCAUCAUAUGGGUUGCAACUGAGGGAGCCUUGAAUACACCAAAAGAUCACAUUGGCACCCGCAAUCCUGCUAACAAUGCU [DMSMaPseq_invitro_SARS-CoV-2_Motif_513]" label_value=No
seq_string="CCACAUAGAUCAUCCAAAUCCUAAAGGAUUUUGUGACUUAAAAGG [SHAPE_invivo_SARS-CoV-2_Motif_251]" label_value=Yes
seq_string="AACUCUGUUGAAUAUAAAUUGGAAUU [hsa-mir-367]" label_value=No
seq_string="AGGUAGUGAUAUGUGCAUCUACU [hsa-mir-17]" label_value=Yes
seq_string="AAUAGAAGAAUUAUUCUAUU [SHAPE_invitro_SARS-CoV-2_Motif_349]" label_value=No
seq_string="AGAUGAGGGUGUCGGAUCAACU [hsa-mir-193a]" label_value=Yes
seq_string="GUCUUGAUCCCCCACCCCAAGAC [hsa-mir-642b]" label_value=No

Origin of values: the supplement of paper PMC11865577
